// data source = ChEMBL document CHEMBL4350967

# target.or.system: Cannabinoid receptor 1 (Homo sapiens, UniProt P21554)
# Sequence (P21554 whole entry): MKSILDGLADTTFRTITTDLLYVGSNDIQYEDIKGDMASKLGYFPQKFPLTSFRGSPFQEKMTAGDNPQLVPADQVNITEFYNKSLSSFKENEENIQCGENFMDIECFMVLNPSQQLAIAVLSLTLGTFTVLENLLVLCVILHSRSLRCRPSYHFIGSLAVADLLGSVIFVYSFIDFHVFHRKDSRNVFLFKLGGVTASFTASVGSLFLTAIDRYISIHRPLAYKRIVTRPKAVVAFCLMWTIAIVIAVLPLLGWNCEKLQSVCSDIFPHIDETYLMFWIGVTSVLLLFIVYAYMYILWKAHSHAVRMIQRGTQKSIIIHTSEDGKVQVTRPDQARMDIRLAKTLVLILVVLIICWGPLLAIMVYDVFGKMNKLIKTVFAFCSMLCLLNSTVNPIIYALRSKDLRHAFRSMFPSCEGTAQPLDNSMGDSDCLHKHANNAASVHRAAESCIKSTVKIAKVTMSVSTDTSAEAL
# test.name: Positive allosteric modulation of human CB1 receptor expressed in CHOK1 cells assessed as increase in CP55940-induced beta-arrestin recruitment at 1 uM preincubated for 30 mins followed by CP55940 addition and measured after 90 to 180 mins by PathHunter assay relative to CP55940
# Assay type: cell-based
property.measured: Activity

For orientation, consider the following solved cases.
1) CN(C)c1ccc(-c2[nH]c3cc(Cl)ccc3c2C(C[N+](=O)[O-])c2cccs2)cc1 (racemic)    < 50%
2) O=C(O)CC(c1ccccc1)c1c(-c2ccccc2)[nH]c2ccccc12 (racemic)    < 50%
3) CC(=O)c1ccc(-c2[nH]c3cc(Cl)ccc3c2C(C[N+](=O)[O-])c2cccs2)cc1 (racemic)    < 50%
4) CC(=O)Nc1ccc2c(C(CC(F)(F)F)c3cccs3)c(-c3ccccc3)[nH]c2c1 (racemic)    < 50%

# next molecule below
Req: Query Activity on Cannabinoid receptor 1 (Homo sapiens, UniProt P21554) for Cc1ccc2c(C(C[N+](=O)[O-])c3cccs3)c(C3CCCCC3)[nH]c2c1 (racemic)
Resp: < 50%

----------
# target.or.system: Cannabinoid receptor 1 (Homo sapiens)
Recorded pEC50 by entry
Note: pEC50 values are expressed as the negative base-10 logarithm of concentration in M.

For orientation, consider the following solved cases.
1. N#Cc1ccc2c([C@H](CC(F)(F)F)c3cccs3)c(-c3ccccc3)[nH]c2c1    7.40
2. N#Cc1ccc2c([C@@H](CC(F)(F)F)c3cccs3)c(-c3ccccc3)[nH]c2c1    7.77
3. Cc1ccc2c(C(C[N+](=O)[O-])c3cccs3)c(-c3ccccc3)[nH]c2c1 (racemic)    7.74
4. N#Cc1ccc2c(C(C[N+](=O)[O-])c3cccs3)c(-c3ccccc3)[nH]c2c1 (single isomer, unassigned; (+))    6.74

# next molecule below
Req: Which pEC50 reading was recorded for the molecule N#Cc1ccc2c(C(C[N+](=O)[O-])c3cccs3)c(-c3ccccc3)[nH]c2c1 (single isomer, unassigned; (-)) ?
Resp: 7.44

----------
# target.or.system: Cannabinoid receptor 1 (Homo sapiens, UniProt P21554)
# test.name: Positive allosteric modulation of human CB1 receptor expressed in CHOK1 cells assessed as increase in CP55940-induced beta-arrestin recruitment preincubated for 30 mins followed by CP55940 addition and measured after 90 to 180 mins by PathHunter assay relative to CP55940
# Type: cell-based
property.measured: Emax (%)
Kindly provide the numeric value in % only, without the unit symbol.

1. COC(=O)c1ccc2c(C(CC(F)(F)F)c3cccs3)c(-c3ccccc3)[nH]c2c1 (racemic)    88
2. Cc1ccc2c(C(C[N+](=O)[O-])c3cccs3)c(-c3ccccc3)[nH]c2c1 (racemic)    106
3. COC(=O)c1ccc2c(C(CC(F)(F)F)c3cccs3)c(-c3ccccc3)[nH]c2c1 (single isomer, unassigned; (+))    156
4. N#Cc1ccc2c(C(C[N+](=O)[O-])c3cccs3)c(-c3ccccc3)[nH]c2c1 (single isomer, unassigned; (+))    51
5. FC(F)(F)CC(c1cccs1)c1c(-c2ccccc2)[nH]c2cc(C(F)(F)F)ccc12 (racemic)    203
6. N#Cc1ccc2c(C(C[N+](=O)[O-])c3cccs3)c(-c3ccccc3)[nH]c2c1 (single isomer, unassigned; (-))    117
7. FC(F)(F)CC(c1cccs1)c1c(C2CCCC2)[nH]c2cc(C(F)(F)F)ccc12 (racemic)    162

# next compound below
Req: Which Emax reading was recorded for the compound CC(=O)c1ccc2c(C(CC(F)(F)F)c3cccs3)c(-c3ccccc3)[nH]c2c1 (racemic) ?
Resp: 121
